- test_method_notes: Volume of distribution at steady state in Balb/c mouse at 1 mg/kg, iv or 30 mg/kg, po via gavage by LC-MS/MS analysis
- Type: ADME, organism-based
- run_conditions: in vivo, read-out: Vdss
readout_kind: Vd
Answer shape: numeric part, then the unit.

Kindly indicate its recorded Vd. Item: `CC(C)C(=O)N1CCC(c2cn(C)c3ncc(NC(=O)c4cccc(C#N)c4)c(C(F)(F)F)c23)CC1` 0.8 L/kg

====

- test_method_notes: Volume of distribution at steady state in Beagle dog at 1 mg/kg, iv or 3 mg/kg, po via gavage by LC-MS/MS analysis
- Format: ADME, organism-based, Canis lupus familiaris
- run_conditions: in vivo, read-out: Vdss
readout_kind: Vd

Identify measured Vd corresponding to `CC(C)C(=O)N1CCC(c2cn(C)c3ncc(NC(=O)c4cccc(C#N)c4)c(C(F)(F)F)c23)CC1` 1.5 L/kg

====

- test_method_notes: Lipophilicity, log D of the compound at pH 7.4 by RP-HPLC analysis
- Format: physicochemical
- run_conditions: buffer
I'd appreciate it if you could supply logD values for the items below.
// response body must contain only the number

Tell me its logD given `Cc1c(NC(=O)c2cccc(C#N)c2)cnc2c1c(C1CCN(C(=O)C3CCC3)CC1)cn2C` as the entry. 2.6

In one line, give reported logD of the entry `Cc1c(NC(=O)c2cccc(C#N)c2)cnc2c1c(C1CCN(C(=O)CC3CC3)CC1)cn2C` . 2.4

Specify measured logD for `CCC(=O)N1CCC(c2cn(C)c3ncc(NC(=O)c4cccc(C#N)c4)c(C)c23)CC1` . 2

Query logD for `CC(=O)N1CCC(c2cn(C)c3ncc(NC(=O)c4cccc(C#N)c4)c(C)c23)CC1` 1.6

Identify measured logD associated with `CC(C)C(=O)N1CCC(c2cn(C)c3ncc(NC(=O)c4cccc(C#N)c4)c(C(C)C)c23)CC1` 2.6

Please list logD recorded for the compound `Cc1c(NC(=O)c2ccc(Cl)c(C#N)c2)cnc2c1c(C1CCN(C(=O)C(C)C)CC1)cn2C` 3.6

Output measured logD for this item: `Cc1c(NC(=O)c2ccc(F)c(C#N)c2)cnc2c1c(C1CCN(C(=O)C(C)C)CC1)cn2C` 2.3

Determine from records and report logD for `Cc1c(NC(=O)c2cccc(C#N)c2)cnc2c1c(C1CCN(C(=O)C3CC3)CC1)cn2C` 2.3

State, in one line, measured logD of Cc1c(NC(=O)c2cccc(C#N)c2)cnc2c1c(C1CCN(C(=O)C3CCOC3)CC1)cn2C (stereo unspecified) 1.6

Tell us which logD value is on record for `Cc1c(NC(=O)c2cccc(C#N)c2)cnc2c1c(C1CCN(C(=O)C3CCCC3)CC1)cn2C` 2.9

Please report logD for the following compound: `Cn1cc(C2CCN(C(=O)C3CCCC3)CC2)c2cc(NC(=O)c3cccc(C#N)c3)cnc21` 3.8

Entry `Cn1cc(C2CCN(C(=O)C3CCCC3)CC2)c2cc(NC(=O)c3cccc(C#N)c3)ccc21` needs its logD filled in; supply it. 4.4

Please indicate logD recorded for `Cn1cc(C2CCN(C(=O)C3CCCC3)CC2)c2cc(NC(=O)c3cc(C#N)ccn3)ccc21` 4.3

Indicate the recorded logD value for this compound: `Cc1ccc(C(=O)Nc2cnc3c(c(C4CCN(C(=O)C(C)C)CC4)cn3C)c2C)cc1C#N` 2.3

Respond only with logD recorded for `Cc1noc(C)c1C(=O)N1CCC(c2cn(C)c3ncc(NC(=O)c4cccc(C#N)c4)c(C)c23)CC1` 2

Read off the recorded logD for `Cc1c(NC(=O)c2cccc(C#N)c2)ccc2c1c(C1CCN(C(=O)C3CCCC3)CC1)cn2C` 4
